This collection of values is drawn from patent US20030059511A1.

Test: Measurement of the magnification of sweetness intensity in aqueous solution (sensory evaluation against sucrose solutions)
Type: in vivo, human
Conditions: aqueous solution
Exercise: state measured Amount equivalent to PSE 10% for each of the compounds provided.
Numbers only here, please. The scale is mg/1000 ml.

query: Field request: Amount equivalent to PSE 10% | item: COC(=O)[C@H](Cc1ccccc1)NC(=O)[C@H](CC(=O)O)NCCC(C)(C)c1ccc(OC)cc1
result: 11.9

query: Entry under review: COC(=O)[C@H](Cc1ccccc1)NC(=O)[C@H](CC(=O)O)NCCC(C)(C)c1ccc(O)c(C)c1 . Reported Amount equivalent to PSE 10%?
result: 2.3

query: Amount equivalent to PSE 10% for COC(=O)[C@H](Cc1ccccc1)NC(=O)[C@H](CC(=O)O)NCCC(C)(C)c1ccc(O)cc1 ?
result: 6.7

query: Look up Amount equivalent to PSE 10%: COC(=O)[C@H](Cc1ccccc1)NC(=O)[C@H](CC(=O)O)NCCCc1ccc(O)cc1O
result: 12.5

query: Amount equivalent to PSE 10% for COC(=O)[C@H](Cc1ccccc1)NC(=O)[C@H](CC(=O)O)NCCCc1ccc(OC)cc1O ?
result: 9.0

query: Which Amount equivalent to PSE 10% reading was recorded for the compound COC(=O)[C@H](Cc1ccccc1)NC(=O)[C@H](CC(=O)O)NCCCc1ccc(OC)cc1 ?
result: 17.9

query: Entry COC(=O)[C@H](Cc1ccccc1)NC(=O)[C@H](CC(=O)O)NCCCc1ccc(O)c(C)c1 : reported Amount equivalent to PSE 10% = ?
result: 5.5

query: Fill in: Amount equivalent to PSE 10% of COC(=O)[C@H](Cc1ccccc1)NC(=O)[C@H](CC(=O)O)NCCCc1ccc(OC)c(O)c1 is ___
result: 4.5

query: Which Amount equivalent to PSE 10% value is on record for COC(=O)[C@H](Cc1ccccc1)NC(=O)[C@H](CC(=O)O)NCCC(C)(C)c1ccc(OC)c(O)c1 ?
result: 2.3

---

Experiment: Taste characteristics in an aqueous solution (9 items, similarity index vs aqueous 10% sucrose solution)
Assay type: in vivo, human
Conditions: PSE 10%, smaller = closer to sucrose, 8 panelists
I'd be grateful if you could share measured Similarity index for these entries.
API note: the answer field is a bare number with no unit suffix.

query: For the compound COC(=O)[C@H](Cc1ccccc1)NC(=O)[C@H](CC(=O)O)NCCC(C)(C)c1ccc(O)c(C)c1 [Derivative 4] , what Similarity index is on record?
result: 0.93

query: For the compound shown here, COC(=O)[C@H](Cc1ccccc1)NC(=O)[C@H](CC(=O)O)NCCC(C)(C)c1ccc(OC)cc1 [Derivative 5] , give the reported Similarity index.
result: 1.38

query: // query Similarity index value for entry COC(=O)[C@H](Cc1ccccc1)NC(=O)[C@H](CC(=O)O)NCCCc1ccc(OC)c(O)c1 [Derivative 1]
result: 1.17

query: Which Similarity index reading was recorded for the compound COC(=O)[C@H](Cc1ccccc1)NC(=O)[C@H](CC(=O)O)NCCC(C)(C)c1ccc(O)cc1 [Derivative 6] ?
result: 0.93

query: Field request: Similarity index | item: COC(=O)[C@H](Cc1ccccc1)NC(=O)[C@H](CC(=O)O)NCCCc1ccc(O)cc1O [Derivative 9]
result: 0.77

query: Quick one: Similarity index of COC(=O)[C@H](Cc1ccccc1)NC(=O)[C@H](CC(=O)O)NCCCc1ccc(OC)cc1O [Derivative 7] ?
result: 0.86

query: Tell me the measured Similarity index of COC(=O)[C@H](Cc1ccccc1)NC(=O)[C@H](CC(=O)O)NCCC(C)(C)c1ccc(OC)c(O)c1 [Derivative 3] , please.
result: 1.04

query: // Similarity index lookup, key: COC(=O)[C@H](Cc1ccccc1)NC(=O)[C@H](CC(=O)O)NCCCc1ccc(O)c(C)c1 [Derivative 8]
result: 0.77

query: Name the reported Similarity index value associated with the compound COC(=O)[C@H](Cc1ccccc1)NC(=O)[C@H](CC(=O)O)NCCCc1ccc(OC)cc1 [Derivative 2]
result: 0.63
